Test target: Yap3 (UniProt P38749)
Sequence: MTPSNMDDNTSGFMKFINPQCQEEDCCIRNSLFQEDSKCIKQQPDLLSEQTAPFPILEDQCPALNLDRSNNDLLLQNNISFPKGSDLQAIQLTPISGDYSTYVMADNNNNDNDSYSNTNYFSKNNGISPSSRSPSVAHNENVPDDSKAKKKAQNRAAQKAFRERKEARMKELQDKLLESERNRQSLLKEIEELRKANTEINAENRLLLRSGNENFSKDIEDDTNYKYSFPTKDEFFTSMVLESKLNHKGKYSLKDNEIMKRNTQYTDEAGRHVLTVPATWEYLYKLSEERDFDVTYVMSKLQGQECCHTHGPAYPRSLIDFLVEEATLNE
Method summary: PBM E-score (8-mer binding enrichment) (E-score (-0.5 to 0.5)); higher = stronger / more preferred TF binding
Details: protein concentration: 100 nM; construct: GST-full length
Whole data set: some 33,000 sequences, median “E-score (-0.5 to 0.5)” near -0.0034, cut for the highest 2% near 0.25. Many of the other results were omitted from the sample, so the highest values are more common in it than they were.
Assign PBM E-score to each entry below.

[ask] If you can, please state the reported PBM E-score value of "AGTGGTAC" .
[reply] 0.0484

[ask] What does the record list as PBM E-score for "ATAGATTA" ?
[reply] 0.348

[ask] What measured PBM E-score goes with "ATATATGC" ?
[reply] 0.224

[ask] Request the reported PBM E-score associated with "CATTAGAA"
[reply] 0.123

[ask] // query PBM E-score value for entry "AAAGCTGT"
[reply] 0.15

[ask] Entry under review: "AGTGCCTC" . Reported PBM E-score?
[reply] -0.229

[ask] Entry "ACTTATGC" has what PBM E-score?
[reply] 0.0843

[ask] Param item = "CTGTAAGA" ; retrieve measured PBM E-score.
[reply] -0.0157

[ask] Which PBM E-score value is on record for "AAATGAAA" ?
[reply] 0.324

[ask] Give its PBM E-score value. Item: "CGTCGCGA"
[reply] 0.141

[ask] Return reported PBM E-score; argument: "GAACAAAA"
[reply] 0.346

[ask] So what does the record say about PBM E-score for "AAAGAAAG" ?
[reply] 0.231

[ask] GET /values?readout=PBM E-score&item= "CCTAACAG"
[reply] 0.0154

[ask] I have this sequence here, "ATCGGAAA" , and I need its recorded PBM E-score.
[reply] 0.112

[ask] // lookup PBM E-score for "AAAGAAAT"
[reply] 0.26

[ask] Fill in the blank: the reported PBM E-score of "ACAAGGGG" is ____.
[reply] -0.193

[ask] Sample "GACTGTCC" — what was its PBM E-score?
[reply] -0.203

[ask] GET /values?readout=PBM E-score&item= "ATAGAAAA"
[reply] 0.217

[ask] So what's the measured PBM E-score for this one? "CTATGGAG"
[reply] -0.0464

[ask] So what's the measured PBM E-score for this one? "ACTCGTTC"
[reply] -0.0576

[ask] Given "AATCGCGA" , state its recorded PBM E-score.
[reply] 0.255

[ask] What PBM E-score value was documented for this sequence, "GTGTAAGA" ?
[reply] -0.0287

[ask] Would you kindly share the measured PBM E-score for "ATATATGG" ?
[reply] 0.259

[ask] Given the entry "ACGGAAAA" , report its measured PBM E-score.
[reply] 0.107

[ask] Value lookup for PBM E-score; key = "CTGTAATA"
[reply] 0.113

[ask] Find the recorded PBM E-score belonging to "TAATAATA" and report it.
[reply] 0.373

[ask] What value of PBM E-score has been reported for the following sequence? "AGGACACA"
[reply] 0.0983

[ask] So what's the measured PBM E-score for this one? "ACGGAAAG"
[reply] 0.144

[ask] Report PBM E-score for "AAGAAAAA" please.
[reply] 0.059

[ask] Endpoint output: PBM E-score of "CTCTAGAA" . Value?
[reply] -0.214

[ask] Please give the measured PBM E-score for this sequence: "GATGGAGC"
[reply] -0.108

[ask] Item "GCATGATA" has what recorded PBM E-score?
[reply] 0.184

[ask] // query PBM E-score value for entry "AAGAGCCG"
[reply] -0.0966

[ask] Given the sequence "AGCCTCAT" , what is its reported PBM E-score?
[reply] -0.158

[ask] What value of PBM E-score has been reported for the following sequence? "AAATGATT"
[reply] 0.19

[ask] What does the data say about its PBM E-score? Entry: "GACAAAAC"
[reply] 0.179

[ask] Given the sequence "GGCTTATA" , what is its reported PBM E-score?
[reply] -0.00779

[ask] PBM E-score for "CGGATGAC" ?
[reply] 0.0307

[ask] Need PBM E-score, item "CTGTAACA"
[reply] -0.0647

[ask] Fill blank: measured PBM E-score of the sequence "ACGCGTTA" is ____.
[reply] 0.0763

[ask] Could you tell me which PBM E-score is on file for "AAGAAATT" ?
[reply] 0.199

[ask] State the recorded PBM E-score for this entry: "CTCGGAAA"
[reply] 0.0289

[ask] Would you mind telling me what PBM E-score value was observed for "CTCAGCGC" ?
[reply] -0.114

[ask] Please report the recorded PBM E-score for "ACAGAGGT" .
[reply] -0.0174

[ask] Endpoint output: PBM E-score of "GGATATTA" . Value?
[reply] 0.0994

[ask] Item "GTATATTA" has what recorded PBM E-score?
[reply] 0.211

[ask] Please report the recorded PBM E-score for "AAAGACTG" .
[reply] -0.0469

[ask] Record request: PBM E-score value, item "GAACCAAC"
[reply] 0.00249

[ask] Need PBM E-score, item "ACATGATA"
[reply] 0.263

[ask] Data request, read-out PBM E-score, for "AAAGAAAA"
[reply] 0.18

[ask] Entry under review: "ACCCCTCT" . Reported PBM E-score?
[reply] -0.251

[ask] Please look up its PBM E-score: "GGTCGCGA"
[reply] 0.0906

[ask] Need PBM E-score, item "ATATATTA"
[reply] 0.32

[ask] Item under review: "AACAAAAC" . Reported PBM E-score?
[reply] 0.239

[ask] Which PBM E-score value belongs to "TAGTCTCA" ?
[reply] -0.034

[ask] Which PBM E-score value belongs to "TCAAAGAA" ?
[reply] -0.0713

[ask] I have this sequence here, "AAATGATC" , and I need its recorded PBM E-score.
[reply] -0.129

[ask] What value of measured PBM E-score is listed for "CGATATTA" ?
[reply] 0.358

[ask] So what does the record say about PBM E-score for "AAATAATA" ?
[reply] 0.307

[ask] Requested read-out: PBM E-score. Entry: "ATAGATTG"
[reply] 0.119

[ask] Sample "ACAAGAAT" — what was its PBM E-score?
[reply] 0.1

[ask] State the recorded PBM E-score for this entry: "CCGTGAAG"
[reply] -0.167

[ask] For the sequence "CAATAATA" , what PBM E-score is on record?
[reply] 0.237

[ask] Need PBM E-score of "GAATAAAA" , thanks.
[reply] 0.178

[ask] Would you kindly share the measured PBM E-score for "TAATGAAA" ?
[reply] 0.218

[ask] Requested field: PBM E-score. Item: "ACGAAGAT"
[reply] 0.0321

[ask] Record request: PBM E-score value, item "CAATGATA"
[reply] 0.137

[ask] Look up PBM E-score for this sequence: "TAATGATA"
[reply] 0.239

[ask] Suppose we examine the sequence "ACATGATC" ; what PBM E-score value has been reported?
[reply] 0.115

[ask] Using the record for "TAGAGCTA" , report its PBM E-score.
[reply] -0.0728

[ask] // lookup PBM E-score for "AAATAAAA"
[reply] 0.224

[ask] Would you mind telling me what PBM E-score value was observed for "GAGTGGAC" ?
[reply] -0.0806

[ask] Please look up its PBM E-score: "CTATATTA"
[reply] 0.325

[ask] Form field: reported PBM E-score of "CTGTAAGC"
[reply] -0.0121

[ask] Could you tell me which PBM E-score is on file for "GTCGGAAA" ?
[reply] 0.263

[ask] Data request, read-out PBM E-score, for "ATATGGAG"
[reply] 0.264

[ask] # input sequence: "ATATATAC" ; wanted: its PBM E-score
[reply] 0.299

[ask] # lookup: PBM E-score of "ACGGAAAC"
[reply] -0.079

[ask] Which PBM E-score value is on record for "ATGTAACG" ?
[reply] 0.164

[ask] Entry under review: "GCTGCTCC" . Reported PBM E-score?
[reply] -0.307

[ask] Name the reported PBM E-score value associated with the sequence "CTCTTTGC"
[reply] 0.00066

[ask] Which measured PBM E-score value corresponds to "ATATATTG" ?
[reply] 0.0595

[ask] Query: PBM E-score; subject: "AAATGATA"
[reply] 0.275

[ask] Entry under review: "AGCTTGAC" . Reported PBM E-score?
[reply] -0.0896

[ask] Requested read-out: PBM E-score. Entry: "ATGTAATG"
[reply] 0.151

[ask] Report PBM E-score for "AAATAATG" please.
[reply] 0.24

[ask] Any idea what PBM E-score was measured for "CCGCCAGC" ?
[reply] -0.196

[ask] PBM E-score lookup needed for "CTCTATTA" , thanks.
[reply] 0.0839

[ask] // query PBM E-score value for entry "CGGGTAAC"
[reply] -0.0884

[ask] GET /values?readout=PBM E-score&item= "ATATATAT"
[reply] 0.231

[ask] Query: PBM E-score; subject: "AAGTGGAC"
[reply] -0.033
